Biological target: FGFR2 (Homo sapiens, UniProt P21802)
Construct: the juxtamembrane, ATP and catalytic components projecting from the cell membrane into the cytosol have been expressed through recombinant genetic techniques
Sequence (P21802 399-821 limits assumed): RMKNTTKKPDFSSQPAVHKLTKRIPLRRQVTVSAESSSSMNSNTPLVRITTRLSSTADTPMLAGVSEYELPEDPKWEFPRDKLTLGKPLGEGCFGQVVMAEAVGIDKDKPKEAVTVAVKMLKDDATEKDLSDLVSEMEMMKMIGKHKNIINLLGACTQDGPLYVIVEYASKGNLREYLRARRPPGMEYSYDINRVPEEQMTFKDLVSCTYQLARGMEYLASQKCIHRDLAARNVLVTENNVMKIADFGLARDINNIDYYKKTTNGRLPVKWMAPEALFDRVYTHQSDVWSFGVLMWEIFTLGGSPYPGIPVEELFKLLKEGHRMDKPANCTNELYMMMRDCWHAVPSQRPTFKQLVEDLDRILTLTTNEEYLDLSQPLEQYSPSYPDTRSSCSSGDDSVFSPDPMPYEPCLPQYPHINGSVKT
Assay: SelectScreen in vitro kinase screen, FGFR2
Settings: read-out: IC50 against FGFR2

molecule	IC50
CCN(CC)CCNc1ccc2ncn3c4ccc(O)cc4c(=O)c1c23 [XF-2]	> 2000 nM

* * *

Molecular target: all the other RTK's
Assay: SelectScreen in vitro kinase screen, other RTK and TK enzymes
Conditions: read-out: IC50 against all the other RTK's
pIC50: −log10 of the molar value.

smiles_entry	pIC50
CCN(CC)CCNc1ccc2ncn3c4ccc(O)cc4c(=O)c1c23	< 5.30

* * *

Biological target: FLT3 (Homo sapiens, UniProt P36888)
Construct: the juxtamembrane, ATP and catalytic components projecting from the cell membrane into the cytosol have been expressed through recombinant genetic techniques
Sequence (P36888 564-993 limits assumed): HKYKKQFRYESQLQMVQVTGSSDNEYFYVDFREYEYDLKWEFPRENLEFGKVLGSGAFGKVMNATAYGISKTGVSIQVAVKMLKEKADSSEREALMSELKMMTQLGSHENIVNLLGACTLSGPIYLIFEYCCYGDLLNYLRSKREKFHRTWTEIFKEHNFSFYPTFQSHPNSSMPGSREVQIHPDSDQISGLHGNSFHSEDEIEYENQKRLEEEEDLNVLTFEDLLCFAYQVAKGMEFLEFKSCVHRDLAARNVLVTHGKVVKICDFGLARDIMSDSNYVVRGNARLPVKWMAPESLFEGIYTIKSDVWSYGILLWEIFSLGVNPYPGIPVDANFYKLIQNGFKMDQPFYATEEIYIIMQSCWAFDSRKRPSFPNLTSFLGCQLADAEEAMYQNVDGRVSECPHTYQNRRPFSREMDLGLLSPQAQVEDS
Test: SelectScreen in vitro dose response assay against FLT3 (Example 7)
Conditions: ATP at 100 micromolar; 4 parameter Hill equation
Method: The terms “IC50” and “EC50” are used interchangeably. As used herein, “EC50” refers to nMolar concentration at median percent inhibition determined by dose respose (DR) assay. As used herein, the term “E1000” refers to percent inhibition at 1000 nMolar determined by assay. EC50 was calculated based on dose response curve was fitted to 4 parameter Hill equation. […]
Measured EC50 accompanies every entry in the list below.
quantity: EC50 (nM)

compound	quantity	recorded_number
CN(C)CCNc1ccc2ncn3c4ccc(O)cc4c(=O)c1c23 [XF-0025]	EC50	25
O=c1c2ccccc2n2cnc3ccc(NCCNCCO)c1c32 [XF-0328]	EC50	135
CN(C)CCNc1ccc2ncn3c4ccccc4c(=O)c1c23 [XF-0308]	EC50	133
O=c1c2cc(O)ccc2n2cnc3ccc(NCCN4CCCC4)c1c32 [XF-0241]	EC50	50
O=c1c2cc(O)ccc2n2cnc3ccc(NCCCN4CCOCC4)c1c32 [XF-0113]	EC50	50
O=c1c2c(NCCN3CCOCC3)ccc3ncn(c4ccc5[nH]ncc5c14)c32 [XF-0122]	EC50	51

* * *

Molecular target: FLT3 (Homo sapiens)
Construct: the juxtamembrane, ATP and catalytic components projecting from the cell membrane into the cytosol have been expressed through recombinant genetic techniques; purchased Invitrogen, Inc. (SelectScreen platform)
Test: SelectScreen in vitro kinase screen, FLT3 (Example 2)
Format: biochemical
Conditions: read-out: IC50 against FLT3

smiles_entry	IC50
CCN(CC)CCNc1ccc2ncn3c4ccc(O)cc4c(=O)c1c23	~10 nM
